measured_on: Proto-oncogene tyrosine-protein kinase Src (Homo sapiens, UniProt P12931)
Sequence (P12931 2-536 limits assumed): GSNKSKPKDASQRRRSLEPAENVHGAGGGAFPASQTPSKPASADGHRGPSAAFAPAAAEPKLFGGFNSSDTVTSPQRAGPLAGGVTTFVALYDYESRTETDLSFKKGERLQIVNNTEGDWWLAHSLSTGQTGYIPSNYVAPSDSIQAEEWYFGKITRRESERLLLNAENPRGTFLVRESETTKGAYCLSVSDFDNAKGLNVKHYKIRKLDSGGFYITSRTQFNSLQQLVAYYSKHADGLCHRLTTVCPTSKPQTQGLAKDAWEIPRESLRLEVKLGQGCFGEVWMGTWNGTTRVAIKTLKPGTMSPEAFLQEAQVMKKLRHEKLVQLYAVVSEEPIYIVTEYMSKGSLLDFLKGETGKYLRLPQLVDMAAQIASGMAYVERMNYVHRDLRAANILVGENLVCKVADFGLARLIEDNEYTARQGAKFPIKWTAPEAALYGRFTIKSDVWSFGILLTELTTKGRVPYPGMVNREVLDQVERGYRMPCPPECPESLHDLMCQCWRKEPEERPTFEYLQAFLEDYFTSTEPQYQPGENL
measurement_protocol: Inhibition of His-tagged human src kinase expressed in Sf9 cells by DELFIA assay
endpoint: pIC50
pIC50 is defined as minus the log10 of a concentration measured in mol/L.

Reported pIC50, molecule O=C1C(c2ccccc2)=C(O)C(=O)c2c1oc1cc(O)c(O)cc21 : ____
4.63

And the next one, O=C1C(O)=C(c2ccc(O)cc2)C(=O)C(O)=C1c1ccccc1 ?
4.43

And the next one, O=C1C(O)=C(c2cc(O)c(O)c(O)c2)C(=O)C(O)=C1c1ccccc1 ?
5.41

And the next one, O=C1C(O)=C(c2ccc(O)c(O)c2)C(=O)C(O)=C1c1ccccc1 ?
4.84
